Numbers sourced from patent US20260210939A1.

targetEntity: OR7D4 (Homo sapiens, UniProt Q8NG98, D296E/E302K/G299D)
Construct: Improved functional expression of modified OR-genes containing the truncated, optimized C-terminus; expressed in transfected cells
Sequence (Q8NG98 with tags, fused parts or gaps D296E/G299D/E302K): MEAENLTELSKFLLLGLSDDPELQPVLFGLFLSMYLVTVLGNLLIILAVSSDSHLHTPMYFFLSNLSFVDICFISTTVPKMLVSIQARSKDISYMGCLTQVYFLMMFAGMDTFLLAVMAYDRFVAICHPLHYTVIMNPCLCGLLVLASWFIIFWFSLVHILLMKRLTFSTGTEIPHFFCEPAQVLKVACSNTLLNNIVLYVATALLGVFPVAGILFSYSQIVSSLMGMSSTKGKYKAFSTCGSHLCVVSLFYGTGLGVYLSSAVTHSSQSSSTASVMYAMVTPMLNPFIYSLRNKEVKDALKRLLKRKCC
assayExplanation: CRE-luciferase assay, HEK cells expressing OR7D4 (wild-type / modified C-terminus)
Type: cell-based
conditionDescription: OR7D4 variant, 0.1 μM Androstenone
Measured Fold induction luciferase, listed per entry.
Just the number.

What measured Fold induction luciferase goes with SEQ ID NO: 264 (RNKDIKKAVKKLIKKKCC; source 1..18: note = C-terminal domain sequence) ?
3.79

Next: SEQ ID NO: 285 (RNKELKKALRRLIGRRCC; source 1..18: note = C-terminal domain sequence)
3.18

---
Which Fold induction luciferase is listed for SEQ ID NO: 288 (RNKEVRKALKKLFGKKCC; source 1..18: note = C-terminal domain sequence) ?
17.84

Try the substance SEQ ID NO: 305 (RNKDLKKAVKKLFGRKCC; source 1..18: note = C-terminal domain sequence)
1.63
